- TARGET UNDER TEST: human recombinant BACE1 (Homo sapiens (Human), UniProt P56817)
- Sequence (P56817 46-501): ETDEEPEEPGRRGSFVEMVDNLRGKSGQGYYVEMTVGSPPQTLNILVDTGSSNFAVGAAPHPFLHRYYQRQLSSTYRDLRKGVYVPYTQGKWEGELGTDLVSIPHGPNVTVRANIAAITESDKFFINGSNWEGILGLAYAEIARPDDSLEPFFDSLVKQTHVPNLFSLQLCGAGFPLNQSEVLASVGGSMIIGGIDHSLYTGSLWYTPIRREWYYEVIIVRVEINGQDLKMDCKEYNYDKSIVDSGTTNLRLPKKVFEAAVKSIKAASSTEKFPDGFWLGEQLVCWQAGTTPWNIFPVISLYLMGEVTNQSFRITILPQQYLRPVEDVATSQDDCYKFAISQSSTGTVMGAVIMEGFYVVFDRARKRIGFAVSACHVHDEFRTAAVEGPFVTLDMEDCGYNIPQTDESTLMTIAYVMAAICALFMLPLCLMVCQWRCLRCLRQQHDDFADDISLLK
- EXPERIMENT SUMMARY: In vitro enzymatic BACE1 FRET assay
- Format: biochemical
- EXPERIMENTAL CONTEXT: read-out: IC50 IP (μM) BACE1 enzyme
PARAMETER MEASURED: IC50 (µM)
Please respond with the number in µM and leave the unit unwritten.

The following compounds have reported results that may help.
[[record]]
compound = "C[C@]1(c2cc(NC(=O)c3ccc(Cl)cn3)ccc2F)N=C(N)S[C@]2(CO)[C@H]1C2(F)F [Example 704]"
measured_value = 0.002

[[record]]
compound = "COC[C@]12C[C@H]1[C@@](C)(c1cc(NC(=O)c3cnc(OCc4ncco4)cn3)cc(C)c1F)N=C(N)S2 [Example 1071]"
measured_value = 0.000768

[[record]]
compound = "C#CCOc1cnc2c(Nc3cnc(F)c([C@@]4(C)N=C(N)S[C@@]5(CO)C[C@H]54)c3)ncnc2c1 [Example 670]"
measured_value = 0.0024


Proceed to the following item.
Ask: Give the value of IC50 reported for the following: N#CC[C@]12C[C@H]1[C@@](CF)(c1cc(Nc3nccc4nc(OCc5ncco5)cnc34)ccc1F)N=C(N)S2 [Example 721]
Reply: 0.00162

* * *

- TARGET UNDER TEST: human recombinant BACE1 (Homo sapiens (Human))
- EXPERIMENT SUMMARY: In vitro enzymatic BACE1 FRET assay
- Type: biochemical
- EXPERIMENTAL CONTEXT: BACE1 FRET enzyme assay; read-out: IC50 IP (μM) BACE1 enzyme
PARAMETER MEASURED: IC50 (µM)
Write the answer as a number in µM, unit excluded.

Here's what some known entries look like.
[[record]]
smiles_record = "COC[C@]12C[C@H]1[C@@](CF)(c1cc(Nc3ncnc4cc(Cl)cnc34)ccc1F)N=C(N)S2"
parameter_measured = "IC50"
measured_value = 0.00911

[[record]]
smiles_record = "COC[C@]12C[C@H]1[C@@](CF)(c1cc(NC(=O)c3ccc(Cl)cn3)cc(F)c1F)N=C(N)S2"
parameter_measured = "IC50"
measured_value = 0.00235

[[record]]
smiles_record = "COc1cnc2c(Nc3cc(F)c(F)c([C@@]4(CF)N=C(N)S[C@H]5C[C@H]54)c3)ncnc2c1"
parameter_measured = "IC50"
measured_value = 0.0171

[[record]]
smiles_record = "C[C@]1(c2cc(Nc3nccc4cc(C#N)cnc34)cc(F)c2F)N=C(N)S[C@H]2C[C@H]21"
parameter_measured = "IC50"
measured_value = 0.0145

[[record]]
smiles_record = "NC1=N[C@](CF)(c2cc(NC(=O)c3ccc(Cl)cn3)ccc2F)[C@@H]2C[C@]2(CO)S1"
parameter_measured = "IC50"
measured_value = 0.00332


Ask: Send back human recombinant BACE1 (Homo sapiens (Human)) IC50 of `CCOC(=O)[C@]12C[C@H]1[C@@](C)(c1cc(NC(=O)c3ccc(Cl)cn3)cc(F)c1F)N=C(N)S2` only.
Reply: 0.00679

Ask: Provide IC50, recorded with human recombinant BACE1 (Homo sapiens (Human)), of `COc1cnc(C(=O)Nc2cc(F)c(F)c([C@@]3(CF)N=C(N)S[C@H]4C[C@H]43)c2)c(C)n1`
Reply: 0.026

* * *

- TARGET UNDER TEST: human recombinant BACE1 (Homo sapiens (Human))
- EXPERIMENT SUMMARY: In vitro enzymatic BACE1 FRET assay
- Type: biochemical
- EXPERIMENTAL CONTEXT: BACE1 FRET enzyme assay; read-out: IC50 IP (μM) BACE1 enzyme
Catalogue of IC50 readings, one per entry.
Kindly write the number and append the unit.

Past entries and their recorded results:
[[record]]
compound = "COc1cnc2c(Nc3cc(F)c(F)c([C@@]4(C)N=C(N)S[C@@]5(CF)C[C@H]54)c3)ncnc2c1 [Example 64]"
measured_value = "0.00448 µM"

[[record]]
compound = "CC(C)Oc1cnc2c(Nc3cc(F)c(F)c([C@@]4(CF)N=C(N)S[C@H]5C[C@H]54)c3)nccc2n1 [Example 63]"
measured_value = "0.137 µM"

[[record]]
compound = "CCOC(=O)[C@]12C[C@H]1[C@@](C)(c1cc(Nc3nccc4cc(Cl)cnc34)cc(F)c1F)N=C(N)S2 [Example 25]"
measured_value = "0.0025 µM"


Ask: Assign IC50 to the following record: COC[C@@]12C[C@@H]1[C@@](CF)(c1cc(NC(=O)c3ccc(Cl)cn3)cc(F)c1F)N=C(N)S2 [Example 96]
Reply: 0.00726 µM

Ask: Annotate the compound Cc1cc(OC(F)F)cnc1C(=O)Nc1cc(F)c(F)c([C@@]2(CF)N=C(N)S[C@H]3C[C@H]32)c1 [Example 86] with its measured IC50.
Reply: 0.00763 µM

Ask: Identify IC50 associated with the compound C#CCOc1cnc2c(Nc3cc(F)c(F)c([C@@]4(C)N=C(N)S[C@@]5(CO)C[C@H]54)c3)nccc2n1 [Example 82]
Reply: 0.00043 µM

Ask: Tell us which IC50 value is on record for COC[C@]12C[C@H]1[C@@](C)(c1cc(Nc3nccc4cc(Cl)cnc34)cc(F)c1F)N=C(N)S2 [Example 24]
Reply: 0.00188 µM

* * *

- TARGET UNDER TEST: human recombinant BACE2 (Homo sapiens (Human))
- Sequence (Q9Y5Z0 63-518): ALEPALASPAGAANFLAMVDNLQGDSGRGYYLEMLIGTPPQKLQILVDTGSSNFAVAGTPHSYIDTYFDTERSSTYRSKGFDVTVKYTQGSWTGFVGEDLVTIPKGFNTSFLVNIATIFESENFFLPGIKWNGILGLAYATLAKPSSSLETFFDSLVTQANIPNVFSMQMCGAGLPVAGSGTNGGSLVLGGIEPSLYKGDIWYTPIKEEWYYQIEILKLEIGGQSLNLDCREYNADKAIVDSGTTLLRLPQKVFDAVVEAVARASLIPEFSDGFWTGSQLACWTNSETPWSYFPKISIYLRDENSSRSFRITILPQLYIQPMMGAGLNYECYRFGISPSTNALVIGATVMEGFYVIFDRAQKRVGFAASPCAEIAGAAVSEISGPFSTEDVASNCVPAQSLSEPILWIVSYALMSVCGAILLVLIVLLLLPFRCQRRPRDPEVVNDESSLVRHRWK
- EXPERIMENT SUMMARY: In vitro enzymatic BACE2 FRET assay
- Assay type: biochemical
- EXPERIMENTAL CONTEXT: read-out: IC50 IP (μM) BACE2 enzyme
PARAMETER MEASURED: IC50 (µM)
Numbers only here, please. The scale is µM.

Answered examples (2):
[[record]]
molecule = "COC[C@]12C[C@H]1[C@@](C)(c1cc(NC(=O)c3cnc(OCc4ncco4)cn3)cc(C)c1F)N=C(N)S2 [Example 1071]"
measured_value = 0.0304

[[record]]
molecule = "COC[C@]12C[C@H]1[C@@](C)(c1cc(Nc3ncnc4cc(Cl)cnc34)cnc1F)N=C(N)S2 [Example 844]"
measured_value = 0.0108


Ask: Determine from records and report IC50 for C[C@]1(c2cc(NC(=O)c3cnc(OCC(F)(F)F)cn3)ccc2F)N=C(N)S[C@@]2(C(=O)NCCF)C[C@H]21 [Example 1040]
Reply: 0.0555

Ask: Identify the reported IC50 for the following entry. COC[C@]12C[C@H]1[C@@](C)(c1cc(Nc3nccc4cc(OC)cnc34)cc(F)c1F)N=C(N)S2 [Example 629]
Reply: 0.0582

Ask: Name the recorded IC50 of the molecule listed here: CC(C)[C@H](C)NC(=O)[C@]12C[C@H]1[C@@](C)(c1cc(NC(=O)c3cnc(OCC(F)(F)F)cn3)ccc1F)N=C(N)S2 [Example 974]
Reply: 0.014

* * *

- TARGET UNDER TEST: human recombinant BACE2 (Homo sapiens (Human))
- EXPERIMENT SUMMARY: In vitro enzymatic BACE2 FRET assay
- Assay type: biochemical
- EXPERIMENTAL CONTEXT: read-out: IC50 IP (μM) BACE2 enzyme
Response field label takes 1 (yes) when IC50 is strictly below 0.06 µM and 0 (no) in all other cases.

These solved cases illustrate the format of a correct answer.
[[record]]
molecule = "C#CCOc1cnc(C(=O)Nc2ccc(F)c([C@@]3(CF)N=C(N)S[C@@]4(/C=C/C(=O)N(C)C)C[C@H]43)c2)cn1"
group = "1 (yes)"

[[record]]
molecule = "COCCNC(=O)/C=C/[C@]12C[C@H]1[C@@](CF)(c1cc(NC(=O)c3ccc(Cl)cn3)ccc1F)N=C(N)S2"
group = "1 (yes)"

[[record]]
molecule = "C#C[C@H](C)Oc1cnc2c(Nc3cc(F)c(F)c([C@@]4(C)N=C(N)S[C@@]5(C(=O)N6CCCC6)C[C@H]54)c3)nccc2n1"
group = "1 (yes)"

[[record]]
molecule = "COC[C@]12C[C@H]1[C@@](C)(c1cc(NC(=O)c3cnc(OCC4COC4)cn3)ccc1F)N=C(N)S2"
group = "0 (no)"

[[record]]
molecule = "C[C@]1(c2cc(NC(=O)c3ccc(Cl)cn3)ccc2F)N=C(N)S[C@@]2(CF)C[C@H]21"
group = "1 (yes)"


Ask: Does the reported IC50 of the following molecule sit strictly below 0.06 µM? `CC(C)(C)NC(=O)[C@]12C[C@H]1[C@@](C)(c1cc(NC(=O)c3cnc(OCC(F)(F)F)cn3)ccc1F)N=C(N)S2`
Reply: 0 (no)

Ask: Given `COC[C@]12C[C@H]1[C@@](C)(c1cc(Nc3nccc4cc(OCC#N)cnc34)cc(F)c1F)N=C(N)S2` , is recorded IC50 strictly lower than 0.06 µM?
Reply: 0 (no)

Ask: Please state whether IC50 is below 0.06 µM for `C[C@]1(c2cc(Nc3ncnc4cc(OCc5ncco5)cnc34)cnc2F)N=C(N)S[C@@]2([C@@H](O)C(F)(F)F)C[C@H]21`
Reply: 0 (no)

Ask: Field: below-cutoff. Rule: recorded IC50 strictly less than 0.06 µM. Subject: `C#CCOc1cnc(C(=O)Nc2cc(F)c(F)c([C@@]3(C)N=C(N)S[C@@]4(CNC(=O)OC(C)(C)C)C[C@H]43)c2)cn1`
Reply: 1 (yes)

Ask: Hello, I'm reviewing records and need to know if IC50 of `NC1=N[C@](CF)(c2cc(NC(=O)c3ccc(Cl)cn3)ccc2F)[C@@H]2C[C@]2(c2c[nH]nn2)S1` is below 0.06 µM. Could you check?
Reply: 1 (yes)

Ask: Lab note: confirm whether the reported IC50 for this molecule is below 0.06 µM, equality not counting. molecule: `C#C[C@H](C)Oc1cnc(C(=O)Nc2ccc(F)c([C@@]3(C)N=C(N)S[C@@]4(COC)C[C@H]43)c2)c(C)n1`
Reply: 0 (no)

Ask: Please indicate whether the reported IC50 of `C[C@]1(c2cc(NC(=O)c3ccc(Cl)cn3)ccc2F)N=C(N)S[C@]2(CO)[C@H]1C2(F)F` is strictly below 0.06 µM.
Reply: 1 (yes)

Ask: Hello, is IC50 of the following molecule strictly smaller than 0.06 µM? `CNC(=O)[C@]12C[C@H]1[C@@](C)(c1cc(NC(=O)c3cnc(OCC(F)(F)C(F)F)cn3)cc(F)c1F)N=C(N)S2`
Reply: 0 (no)

Ask: Quick check: does `COC[C@]12C[C@H]1[C@@](C)(c1cc(NC(=O)c3cnc(OCC4(C)COC4)cn3)cc(F)c1F)N=C(N)S2` have IC50 under 0.06 µM?
Reply: 0 (no)

Ask: Confirm or reject: IC50 of `C[C@]1(c2cc(NC(=O)c3ccc(Cl)cn3)ccc2F)N=C(N)S[C@@]2(C(F)F)C[C@@H]12` lies strictly below 0.06 µM
Reply: 1 (yes)

Ask: # strict comparison: is reported IC50 < 0.06 µM? input = `C[C@]1(c2cc(NC(=O)c3cnc(OCc4ncco4)cn3)cc(F)c2F)N=C(N)S[C@@]2(S(C)(=O)=O)C[C@H]21`
Reply: 1 (yes)

Ask: Item `C#CCOc1cnc(C(=O)Nc2cnc(F)c([C@@]3(C)N=C(N)S[C@@]4(COC)C[C@H]43)c2)c(C)n1` : IC50 beneath 0.06 µM, strictly?
Reply: 1 (yes)

Ask: In plain terms, does `COCCOc1cnc2c(Nc3cc(F)c(F)c([C@@]4(C)N=C(N)S[C@@]5(COC)C[C@H]54)c3)ncnc2c1` come in under 0.06 µM for IC50?
Reply: 0 (no)

Ask: # TODO verify IC50 < 0.06 µM strictly for this molecule: `C#CCOc1cnc(C(=O)Nc2cc(F)c(F)c([C@@]3(C)N=C(N)S[C@@]4(CF)C[C@H]43)c2)c(C)c1`
Reply: 1 (yes)

Ask: Decide: IC50 of `COC[C@]12C[C@H]1[C@@](C)(c1cc(NC(=O)c3cnc(OCCF)cn3)cc(F)c1F)N=C(N)S2` strictly below 0.06 µM?
Reply: 0 (no)

Ask: Bench note: check whether `Cc1cc(OCc2ncco2)cnc1C(=O)Nc1ccc(F)c([C@@]2(C)N=C(N)S[C@@]3(CF)C[C@H]32)c1` shows IC50 below 0.06 µM
Reply: 0 (no)

Ask: Bench note: check whether `CNC(=O)/C=C/[C@]12C[C@H]1[C@@](CF)(c1cc(NC(=O)c3ccc(Cl)cn3)ccc1F)N=C(N)S2` shows IC50 below 0.06 µM
Reply: 1 (yes)

Ask: Here's an entry: `COC[C@]12C[C@H]1[C@@](C)(c1cc(NC(=O)c3ccc(OCC(F)(F)C(F)F)cn3)cc(F)c1F)N=C(N)S2` . Is its IC50 below 0.06 µM?
Reply: 0 (no)

Ask: Bench note: check whether C=C[C@@H](C)Oc1cnc(C(=O)Nc2ccc(F)c([C@@]3(C)N=C(N)S[C@@]4(COC)C[C@H]43)c2)cn1 (mixture of isomers) shows IC50 below 0.06 µM
Reply: 0 (no)

Ask: Criterion: IC50 strictly below 0.06 µM. Is it met by `COC[C@]12C[C@H]1[C@@](C)(c1cc(NC(=O)c3cnc(OCC4CC4)cn3)ccc1F)N=C(N)S2` ?
Reply: 0 (no)

Ask: Threshold test, IC50 < 0.06 µM: `C#C[C@H](C)Oc1cnc(C(=O)Nc2cc(F)c(F)c([C@@]3(C)N=C(N)S[C@@]4(C(F)F)C[C@@H]34)c2)c(C)c1`
Reply: 0 (no)
